Source listed as PubChem BioAssay AID1645863.

experimental_system: Ubiquitin carboxyl-terminal hydrolase 10 (Homo sapiens) (UniProt Q14694)
Sequence (Q14694 whole entry, looked up): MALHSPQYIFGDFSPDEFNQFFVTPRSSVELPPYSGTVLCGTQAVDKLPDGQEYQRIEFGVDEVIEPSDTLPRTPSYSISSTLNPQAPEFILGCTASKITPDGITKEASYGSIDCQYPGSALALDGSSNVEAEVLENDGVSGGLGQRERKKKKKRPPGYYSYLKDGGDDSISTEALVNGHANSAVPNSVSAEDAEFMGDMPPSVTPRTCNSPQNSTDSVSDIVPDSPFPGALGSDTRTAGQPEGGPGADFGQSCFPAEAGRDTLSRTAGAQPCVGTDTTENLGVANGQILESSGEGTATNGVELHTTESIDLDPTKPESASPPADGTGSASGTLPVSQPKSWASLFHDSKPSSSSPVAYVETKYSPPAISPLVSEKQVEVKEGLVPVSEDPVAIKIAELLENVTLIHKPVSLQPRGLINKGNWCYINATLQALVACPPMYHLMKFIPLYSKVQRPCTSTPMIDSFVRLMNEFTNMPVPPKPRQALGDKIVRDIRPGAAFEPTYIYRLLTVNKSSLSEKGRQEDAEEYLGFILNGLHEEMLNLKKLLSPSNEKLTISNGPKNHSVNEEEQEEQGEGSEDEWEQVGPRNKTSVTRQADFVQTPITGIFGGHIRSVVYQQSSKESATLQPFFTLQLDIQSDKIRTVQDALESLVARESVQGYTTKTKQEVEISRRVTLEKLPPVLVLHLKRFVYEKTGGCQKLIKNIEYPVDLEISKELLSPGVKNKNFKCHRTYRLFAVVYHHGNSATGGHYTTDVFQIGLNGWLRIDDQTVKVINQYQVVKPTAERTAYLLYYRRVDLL
method_notes: ubiquitin-specific protease 10 DUB inhibitors, concentration-effect, biochemical, verification of primary screen actives (AID 1645863);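 also: potency values describe inhibition of USP10 cleavage of a fluorogenic ubiquitin substrate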
condition_notes: USP10 deubiquitinase enzymatic assay
Calls of active or inactive are those of the source. No rule for the calls is given here.
Give your call using only these classes: T (active), F (inactive)

Example entries begin here.
INSERT INTO measurements (compound, assigned_category) VALUES
  ('O=C(c1cccnc1)N1CCN(c2cc(-c3ccccc3)[nH]n2)CC1', 'F'),
  ('O=C1Nc2ccccc2C(=O)C1C(c1ccc(Cl)cc1)C1C(=O)Nc2ccccc2C1=O (centres undefined)', 'T'),
  ('Cc1cccc(C)c1NC(=O)CN1C(=O)CC(c2ccccc2)=Nc2ccccc21', 'T');

Kindly review the next compound as well.
# fetch the recorded call for O=C(Nc1cccc([N+](=O)[O-])c1)Nc1ccc2snnc2c1 here
F

====

experimental_system: Ubiquitin carboxyl-terminal hydrolase 10 (Homo sapiens)
method_notes: ubiquitin-specific protease 10 DUB inhibitors, concentration-effect, biochemical, verification of primary screen actives (AID 1645863);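 also: potency values describe inhibition of USP10 cleavage of a fluorogenic ubiquitin substrate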
condition_notes: USP10 deubiquitinase enzymatic assay
The source made the active and inactive calls. The rule behind the calls is not given here.
Give your call using only these classes: active, inactive

INSERT INTO results (compound, experimental_system, assigned_category) VALUES
  ('Nc1c(C(=O)NCc2ccc3c(c2)OCO3)nnn1Cc1ccc(Br)cc1F', 'Ubiquitin carboxyl-terminal hydrolase 10 (Homo sapiens)', 'active');

# fetch the recorded call for Cc1ccc(Nc2nc(O)c(CC(=O)Nc3ccc(C)cc3C)s2)cc1 here
active

Quick one: Cc1ccc(-c2cc(C(F)F)n3ncc(C(=O)Nc4ccc(O)cc4)c3n2)cc1
active

Quick one: Cc1ccc(C(=O)NCc2ccc(C(=O)Nc3ccc(Cl)cc3)o2)cc1
inactive

Quick one: COc1ccc(CC(=O)Nc2ccccc2-c2nc3ccccc3[nH]2)cc1OC
active

Quick one: Cn1c(=O)[nH]c2nncnc2c1=O
inactive

Quick one: O=C(Nc1ccccc1-c1nc(-c2ccccn2)no1)c1cc(Cl)ccc1Cl
inactive

====

experimental_system: Ubiquitin carboxyl-terminal hydrolase 10 (Homo sapiens) (UniProt Q14694)
method_notes: ubiquitin-specific protease 10 DUB inhibitors, concentration-effect, biochemical, verification of primary screen actives (AID 1645863);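 also: potency values describe inhibition of USP10 cleavage of a fluorogenic ubiquitin substrate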
condition_notes: USP10 deubiquitinase enzymatic assay
Active and inactive are the calls of the source. How the calls were made is not given here.
Give your call using only these classes: active, inactive

Example entries begin here.
INSERT INTO assay_data (compound, assigned_category) VALUES
  ('COc1ccc(NC(=O)Cn2c(=O)n(Cc3ccco3)c(=O)c3ccc(C(=O)NC4CCCC4)cc32)cc1', 'inactive'),
  ('Fc1cccc(Nc2ncnc3c2oc2ccccc23)c1', 'inactive');

# fetch the recorded call for Cc1cc(Cl)ccc1NC(=O)c1cc(-c2cccnc2)n[nH]1 here
inactive

Quick one: O=[N+]([O-])c1ccc2c(c1)nc1n2CCN(Cc2ccco2)C1
inactive

Quick one: Cc1nc(C(=O)NC2(O)C(=O)c3ccccc3C2=O)cs1
active

Quick one: Cc1ncc(-c2ccc3c(c2)OCO3)c(-c2nccs2)n1
inactive

Quick one: O=C(/C=C/c1ccco1)N1CCC(Cn2cccn2)CC1
inactive

Quick one: Cc1cc(C)cc(NC(=O)C2CC(=O)Nc3nc4ccccc4n32)c1 (stereo not drawn)
inactive

Quick one: Cc1ccc(-c2nnc3ccc(SCC(=O)N4CCCc5ccccc54)nn23)cc1
inactive

Quick one: CN(C)S(=O)(=O)c1ccc(NC(=O)CN2CCCc3ccccc32)cc1
inactive

Quick one: N#Cc1ccc(NC(=O)Nc2cccn(Cc3ccccc3F)c2=O)cc1
inactive

Quick one: COCCCN1CCS(=O)(=O)c2c(Cl)c(F)nc(Oc3ccc(C#N)cc3)c21
inactive

Quick one: O=C(Nc1ccccc1Cl)c1cc(-c2ccncc2)n[nH]1
inactive

Quick one: Cc1cccc(NC(=O)CCCc2nnc3c(=O)n(-c4cccc(F)c4)ccn23)c1
inactive

Quick one: COc1ccccc1N1CCN(C(=O)c2ccc3c(=O)n(CCc4ccccc4)c(=O)[nH]c3c2)CC1
inactive

Quick one: O=C(CSc1nc2c(cnn2-c2ccccc2)c(=O)[nH]1)Nc1ccc(Cl)cc1F
inactive

Quick one: O=C(Cn1cc(C(=O)C(F)(F)F)c2cc(Br)ccc21)N1CCc2ccccc21
active

Quick one: COc1ccc2c(c1)CCc1c-2nc2ccccc2c1N1CCOCC1
inactive
